Test system: tk(-) 3T3 cells expressing EHV4-TK/E-GFP fusion protein
Experiment: GCV toxicity, viability assay (Figure 5-B)
Assay type: cell-based, murine
Settings: Mus musculus, NIH3T3
pIC50: −log10 of the molar value.
recorded metric: pIC50

INSERT INTO assay_data (molecule, study_target, recorded_metric, recorded_measurement) VALUES
  ('Nc1nc2c(ncn2COC(CO)CO)c(=O)[nH]1 [GCV, 9-(1,3-dihydroxy-2-propoxymethyl)guanine]', 'tk(-) 3T3 cells expressing EHV4-TK/E-GFP fusion protein', 'pIC50', 6.22);

====

Tested on: EHV4-TK expressing PANC-O2 cell bulk
Assay: Cytotoxicity assay, pancreatic tumor cell bulk
Assay type: cell-based, murine
Conditions: Mus musculus
recorded metric: IC50 (nM)

INSERT INTO results (compound, recorded_measurement) VALUES
  ('Nc1nc2c(ncn2COC(CO)CO)c(=O)[nH]1 [GCV, 9-(1,3-dihydroxy-2-propoxymethyl)guanine]', 550);
